Entries and their IC50 values follow.
biological target: UniProtKB O00238; assay: TR-FRET enzymatic ALK kinase assay, ALK6
Sequence (O00238 14-502): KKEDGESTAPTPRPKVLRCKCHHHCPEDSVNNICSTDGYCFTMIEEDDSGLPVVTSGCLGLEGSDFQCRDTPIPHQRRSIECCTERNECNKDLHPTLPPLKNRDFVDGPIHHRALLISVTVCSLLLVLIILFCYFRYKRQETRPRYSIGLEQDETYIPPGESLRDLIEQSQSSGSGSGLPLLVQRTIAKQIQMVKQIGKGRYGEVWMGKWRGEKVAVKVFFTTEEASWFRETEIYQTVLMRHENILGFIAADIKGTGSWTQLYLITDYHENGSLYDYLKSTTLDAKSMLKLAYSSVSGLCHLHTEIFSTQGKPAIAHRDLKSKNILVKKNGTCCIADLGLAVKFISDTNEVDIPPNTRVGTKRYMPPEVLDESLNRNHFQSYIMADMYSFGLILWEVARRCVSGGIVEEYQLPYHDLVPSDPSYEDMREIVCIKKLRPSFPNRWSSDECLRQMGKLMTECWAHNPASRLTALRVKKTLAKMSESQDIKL

>>> measurement("CC(O)c1cccc(-c2cnn3cc(-c4ccc(C5CCNC5)cc4)cnc23)c1 (stereo not drawn)")
"> 10 µM"
>>> measurement("CC(N)c1ccc(-c2cnc3c(-c4ccc(S(N)(=O)=O)c5ccccc45)cnn3c2)cc1 (stereo not drawn)")
"> 10 µM"

Query :: May I ask what IC50 has been recorded for CC(C)(O)c1cccc(-c2cnn3cc(-c4ccc(C5CCNCC5)cc4)cnc23)c1 ?
Result :: > 10 µM

Query :: So what does the record say about IC50 for CC(O)c1cccc(-c2cnn3cc(-c4ccc(CCN5CCCC(O)C5)cc4)cnc23)c1 (stereo not drawn) ?
Result :: > 10 µM

Query :: Name the reported IC50 value associated with the compound O=C(O)c1cccc2c(-c3cnn4cc(-c5ccc(N6CCNCC6)cc5)cnc34)cccc12
Result :: 0.017 µM

Query :: Looking for the measured IC50 of CNC(=O)c1cccc2c(-c3cnn4cc(-c5ccc(N6CCNCC6)cc5)cnc34)cccc12 , can you help?
Result :: 0.334 µM

====

IC50 overview
assay: Cell-based assay, TGFb1 (Cell IC50)
A number alone suffices; assume µM.

Solved cases (6 shown):
>>> measurement("O=C(O)c1cccc2c(-c3cnn4cc(-c5ccc(N6CCNCC6)cc5)cnc34)cccc12 [Compound 5]")
100
>>> measurement("C[C@@H]1CNC[C@H](C)N1c1ccc(-c2cnc3c(-c4ccc(F)c(C#N)c4)cnn3c2)cc1 [Compound 84]")
10
>>> measurement("NS(=O)(=O)c1ccc(-c2cnn3cc(-c4ccc(OC5(CN6CCCCC6)COC5)cc4)cnc23)c2ccccc12 [Compound 87]")
30
>>> measurement("C[C@@H]1CNC[C@H](C)N1c1ccc(-c2cnc3c(-c4cccc5c(C(N)=O)cccc45)cnn3c2)cc1 [Compound 10]")
0.353
>>> measurement("C[C@@H]1CNC[C@H](C)N1c1ccc(-c2cnc3c(-c4cc(C#N)cc(S(N)(=O)=O)c4)cnn3c2)cc1 [Compound 79]")
10.1
>>> measurement("C[C@@H]1CNC[C@H](C)N1c1ccc(-c2cnc3c(-c4ccc(CN)c5ccccc45)cnn3c2)cc1 [Compound 23]")
10.8

Now consider a different compound.
Query :: Name the reported IC50 value associated with the compound c1cc(-c2nn[nH]n2)cc(-c2cnn3cc(-c4ccc(CCN5CCCCC5)cc4)cnc23)c1 [Compound 89]
Result :: 12.4

====

assay: Cell-based assay, TGFb1 (Cell IC50)
Below: a set of entries, each annotated with reported pIC50.
To interpret pIC50, take it as minus log10 of a concentration measured in moles per litre.

Sample records with pIC50:
>>> measurement("O=C(O)c1ccc(-c2cnn3cc(-c4ccc(N5CCNCC5)cc4)cnc23)c2ccccc12 [Compound 1]")
4.00
>>> measurement("CC(O)c1cccc(-c2cnn3cc(-c4ccc(N5[C@H](C)CNC[C@@H]5C)cc4)cnc23)c1 (some centres unmarked) [Compound 83]")
6.02
>>> measurement("C[C@@H]1CNC[C@H](C)N1c1ccc(-c2cnc3c(-c4ccc(-c5nn[nH]n5)c5ccccc45)cnn3c2)cc1 [Compound 26]")
5.73

Query :: Can you share its pIC50? I mean this compound: CS(=O)(=O)c1cccc(-c2cnn3cc(-c4ccc(CCN5CCCCC5)cc4)cnc23)c1 [Compound 86]
Result :: 4.24

// data source = patent US10513521B2
